Hey, just so you know, these numbers are from the supplement of paper PMC10567573.

B1: EMD (parent)
chain: YQSKGYNDDYYEESYFTTRTYGEP

# Variants of: B1
# Experimental Protocol: protein stability index of a GFP-peptide fusion (GPS, HEK-293T) (PSI 1-6); higher = more stable;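 further: lentivirally expressed fusions sorted by FACS into six bins by GFP to DsRed ratio, PSI derived from sequencing read proportions per bin multiplied by bin number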
# Condition Notes: c terminus: a fixed tail appended
Measured Endpoint: protein stability index

For record D9F the listed protein stability index is 2.44

For record Y15T the listed protein stability index is 2.8

For record T18G the listed protein stability index is 2.09

For record Y6Q the listed protein stability index is 2.93

For record F16E the listed protein stability index is 3.64

For record P24T the listed protein stability index is 1.91

For record Y21L the listed protein stability index is 2.32

For record D9V the listed protein stability index is 1.85

For record D9R the listed protein stability index is 1.96

For record Y21D the listed protein stability index is 3.06

For record Y10R the listed protein stability index is 2.82

For record D8P the listed protein stability index is 2.36

For record T20S the listed protein stability index is 2.33

For record Y15R the listed protein stability index is 2.75

For record Y1E the listed protein stability index is 4.2

For record Y21N the listed protein stability index is 2.68

For record Y21I the listed protein stability index is 2.39

For record Y10E the listed protein stability index is 3.04

For record P24N the listed protein stability index is 2.15

For record Y1Q the listed protein stability index is 4.15

For record T20M the listed protein stability index is 2.29

For record P24K the listed protein stability index is 2.58
